- System: PTPN2
- TEST_SUMMARY: HiBiT-Degradation B16F10.4 PTPN2
- Format: cell-based
- ASSAY_CONDITIONS: B16F10.4 cells, 24.0 hours
REPORTED_PROPERTY: DC50

Look over these answered cases.
Cn1nc(C2CCC(=O)NC2=O)c2ccc(-c3ccc(CC(=O)Nc4ccc5c(F)c(N6CC(=O)NS6(=O)=O)c(O)cc5c4)cc3)cc21 (centres unmarked) :: 50 to 200 nM
Cn1c(=O)n(C2CCC(=O)NC2=O)c2ccc(C3CCN(CC(=O)Nc4ccc5c(F)c(N6CC(=O)NS6(=O)=O)c(O)cc5c4)CC3F)cc21 (centres unmarked) :: 10 to 50 nM
Cn1nc(C2CCC(=O)NC2=O)c2ccc(C3CCN(CC(=O)Nc4ccc5c(F)c(N6CC(=O)NS6(=O)=O)c(O)cc5c4)CC3(F)F)cc21 (centres unmarked) :: 50 to 200 nM
Cn1c(=O)n(C2CCC(=O)NC2=O)c2ccc(C3CCN(CC(=O)N4CC(Oc5ccc6cc(O)c(N7CC(=O)NS7(=O)=O)c(F)c6c5)C4)CC3)cc21 (centres unmarked) :: 50 to 200 nM
Cc1cc(CC(=O)Nc2ccc3c(F)c(N4CC(=O)NS4(=O)=O)c(O)cc3c2)ccc1Nc1ccc2c(C3CCC(=O)NC3=O)nn(C)c2c1 (centres unmarked) :: 50 to 200 nM
Cn1c(=O)n(C2CCC(=O)NC2=O)c2ccc(C3CCN(CCCC(=O)Nc4ccc5c(F)c(N6CC(=O)NS6(=O)=O)c(O)cc5c4)CC3)cc21 (centres unmarked) :: ≥ 1000 nM

DC50 of O=C1CCC(N2C(=O)c3ccc(OCc4cn(CCC(=O)Nc5ccc6c(F)c(N7CC(=O)NS7(=O)=O)c(O)cc6c5)nn4)cc3C2=O)C(=O)N1 (centres unmarked) on PTPN2? 200 to 1000 nM

DC50 of Cn1c(=O)n(C2CCC(=O)NC2=O)c2ccc(C3CCN(C(=O)CN4CC[C@H](COc5ccc6cc(O)c(N7CC(=O)NS7(=O)=O)c(F)c6c5)C4)CC3)cc21 (some centres unmarked) on PTPN2? 50 to 200 nM

DC50 of Cn1c(=O)n(C2CCC(=O)NC2=O)c2ccc(C3CCN(C(=O)CN4CC[C@@H](COc5ccc6cc(O)c(N7CC(=O)NS7(=O)=O)c(F)c6c5)C4)CC3)cc21 (some centres unmarked) on PTPN2? 50 to 200 nM

DC50 of Cn1c(=O)n(C2CCC(=O)NC2=O)c2ccc(N3CCC(C4CCN(C(=O)COc5ccc6cc(O)c(N7CC(=O)NS7(=O)=O)c(F)c6c5)CC4)CC3)cc21 (centres unmarked) on PTPN2? 50 to 200 nM

DC50 of O=C1CCC(N2Cc3c(OCc4cnn(CCC(=O)Nc5ccc6c(F)c(N7CC(=O)NS7(=O)=O)c(O)cc6c5)c4)cccc3C2=O)C(=O)N1 (centres unmarked) on PTPN2? 200 to 1000 nM
